Tested On: PrP^Sc deposits (Mus musculus, UniProt P04925)
Sequence (P04925 23-230 limits assumed): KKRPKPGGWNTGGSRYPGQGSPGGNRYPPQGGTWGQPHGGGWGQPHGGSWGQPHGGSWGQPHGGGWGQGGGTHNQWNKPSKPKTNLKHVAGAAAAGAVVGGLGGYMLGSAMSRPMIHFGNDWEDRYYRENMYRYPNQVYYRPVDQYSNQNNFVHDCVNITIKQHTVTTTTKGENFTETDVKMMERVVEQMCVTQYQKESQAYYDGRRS
Test Conditions: brain sections from mock-infected mice, 100 μM compound
Parameter: Fluorescence staining

Consider the reported Fluorescence staining for these compounds:
compound="COc1ccc(/C=C/c2cc(=O)c3cc(I)ccc3o2)cc1OC [SC-(OMe)2]" parameter="Fluorescence staining" result_value="no significant signals"
compound="CN(C)c1ccc(/C=C/C(=O)c2ccc(I)cc2)cc1 [CL-NMe2]" parameter="Fluorescence staining" result_value="Only background signals"
compound="CNc1ccc(/C=C/c2cc(=O)c3cc(I)ccc3o2)cc1 [SC-NHMe]" parameter="Fluorescence staining" result_value="no significant signals"
compound="CN(C)c1ccc(C=C2Oc3ccc(I)cc3C2=O)cc1 [AR-NMe2]" parameter="Fluorescence staining" result_value="Only background signals"

Looking up COc1ccc(/C=C/c2cc(=O)c3cc(I)ccc3o2)cc1 [SC-OMe, (E)-6-Iodo-2-(4-methoxystyryl) chromone] , I see its Fluorescence staining listed as no significant signals

Looking up CN(C)c1ccc(-c2cc(=O)c3cc(I)ccc3o2)cc1 [FL-NMe2, 6-Iodo-4′-dimethyaminoflavone] , I see its Fluorescence staining listed as Only background signals

Looking up CN(C)c1ccc(/C=C/c2cc(=O)c3cc(I)ccc3o2)cc1 [SC-NMe2] , I see its Fluorescence staining listed as Only background signals
